Assay: In vivo pharmacokinetic study in SD rats
Conditions: rat; SD male rats, oral, 30 mg/kg, plasma; read-out: Time to peak Tmax
Description: The test compound was mixed with 5% dimethyl sulfoxide/10% polyoxyethylene stearate/85% aqueous solution, and the mixture was vortexed and sonicated to prepare a 3 mg/mL clear solution for later use. SD male rats aged 7 to 10 weeks were selected and orally administered with a dose of the candidate compound at 30 mg/kg. […] The drug concentration was measured by LC-MS/MS, and pharmacokinetic parameters were calculated using Phoenix WinNonlin software (Pharsight, USA).
quantity: Tmax (h)
Record the value in h, omitting the unit from your answer.

IN: # lookup: Tmax of COC(=O)N1CCN([C@H]2CC[C@H](Nc3nc(Nc4cnn(C5CCOCC5)c4)nc4snc(C)c34)CC2)CC1
OUT: 3

* * *

Assay: Equilibrium solubility experiment for biological media and pH buffers
Type: physicochemical
Conditions: pH 6.04, thermodynamic from solid; FaSSIF, 37° C., 24 h; pH (24 h) 6.04; white suspension; read-out: Solubility (mg/mL) _24 hr
quantity: solubility at 24 h (mg/mL)
Express it in mg/mL; write the number only.

IN: Dear colleague, I am looking for the recorded solubility at 24 h of the following molecule: COC(=O)N1CCN([C@H]2CC[C@H](Nc3nc(Nc4cnn(C5CCOCC5)c4)nc4snc(C)c34)CC2)CC1
OUT: 0.14

* * *

Assay: Equilibrium solubility experiment for biological media and pH buffers
Type: physicochemical
Settings: simulated gastric fluid, thermodynamic from solid; pH = 1.00 buffer, 37° C., 24 h; pH (24 h) 1.11; opalescent and opaque; read-out: Solubility (mg/mL) _24 hr
quantity: solubility at 24 h (mg/mL)
Numbers only; they are read as mg/mL.

IN: solubility at 24 h lookup needed for COC(=O)N1CCN([C@H]2CC[C@H](Nc3nc(Nc4cnn(C5CCOCC5)c4)nc4snc(C)c34)CC2)CC1 , thanks.
OUT: 10.5

* * *

Assay: Equilibrium solubility experiment for biological media and pH buffers
Type: physicochemical
Conditions: simulated gastric fluid, thermodynamic from solid; pH = 2.00 buffer, 37° C., 24 h; pH (24 h) 1.90; opalescent and opaque; read-out: Solubility (mg/mL) _24 hr
quantity: solubility at 24 h (mg/mL)
Numbers only here, please. The scale is mg/mL.

IN: Consider the compound shown here: COC(=O)N1CCN([C@H]2CC[C@H](Nc3nc(Nc4cnn(C5CCOCC5)c4)nc4snc(C)c34)CC2)CC1 What is its recorded solubility at 24 h?
OUT: 10.5
